Provenance of the data: PubChem BioAssay (NCI)

Tested on: A498 renal
Assay: NCI tumour cell line growth inhibition, 48 h
Where a SMILES comes first, the peptide text is derived from it. [ ]: non-standard residue; d: D form. NMeY = CN[C@@H](Cc1ccc(O)cc1)C(=O)O; dNMeF = CN[C@H](Cc1ccccc1)C(=O)O; Sar = CNCC(=O)O
Overview of reported log10 of TGI across a group of compounds:
The base-10 logarithm of TGI, taken with TGI in µM, is what appears here.

Reference set, count: 4
Compound | Readout type | Assay result
S=C=NCc1ccccc1 | log10 of TGI | 1.15
N#Cc1cccc(/C=C(/C(=O)c2ccccc2)c2ccccc2)c1 | log10 of TGI | 1.24
COc1cc2nc(N3CCCC3)nc(Nc3ccccc3)c2cc1OC | log10 of TGI | 0.36
COc1cc2c(cc1Oc1ccc(OC)c3c1CC1c4c(cc(OC)c(OC)c4-3)CCN1C)CC1c3c(cc(OC)c(OC)c3-2)CCN1C (stereo not drawn) | log10 of TGI | 1.10

Data request, read-out log10 of TGI, for c1ccc(-c2nnc(Nc3ccc4c(c3)OCCO4)o2)c(NCc2ccncc2)c1
-0.27

Could you do the same for CN(C)CC/C(=N\Nc1ccc(Cl)c(Cl)c1)c1ccccc1 , please?
0.96

Could you do the same for C=CC(=O)N1CCC([C@@H]2CCNc3c(C(N)=O)c(-c4ccc(Oc5ccccc5)cc4)nn32)CC1 , please?
0.97

Could you do the same for COC(=O)[C@]12CCC(C)(C)C[C@H]1C1=CC[C@@H]3[C@@]4(C)CC[C@H](OC5OC(CO)C(O)C(O)C5OC5OC(CO)C(O)C(O)C5O)C(C)(C)[C@@H]4CC[C@@]3(C)[C@]1(C)CC2 (stereo partly drawn) , please?
1.37

Could you do the same for COc1cc(C)c2c(=O)c3c(oc2c1)C(=O)c1c(O)c(OC)cc(O)c1C3=O , please?
0.74

Could you do the same for CC[C@H](C)[C@@H]1NC(=O)[C@H](Cc2ccc(O)cc2)N(C)C(=O)[C@H](Cc2ccccc2)NC(=O)CN(C)C(=O)[C@@H]2CCCN2C(=O)[C@@H](Cc2ccccc2)N(C)C(=O)[C@H](CC(C)C)NC1=O (cyclo(F[NMeY]IL[dNMeF]P[Sar])) , please?
0.79

---

Test system: OVCAR-4 ovarian
Test: NCI tumour cell line growth inhibition, 48 h
Overview of reported log10(TGI) across a group of molecules:
The base-10 logarithm of TGI, taken with TGI in µM, is what appears here.

Reference set, count: 4
Molecule | log10(TGI)
Cc1cccc(NC(=O)CCl)c1 | 0.91
CCCCCCCCCC1C(C)c2c([nH]c3ccccc23)C2C(=O)N(c3ccccc3)C(=O)C21 (stereo unspecified) | 1.28
C[n+]1ccc(-c2cc[n+](C)cc2)cc1 | 0.51
CC1OC(OC2CCCc3c(O)c4c(c(O)c32)C(=O)c2ccccc2C4=O)CC(N)C1O (stereo unspecified) | 0.51

Continue with the molecule presented below.
Data request, read-out log10(TGI), for COc1ccccc1N1C(=O)CS(=O)(=O)C1c1cccc(Oc2ccccc2)c1 (stereo unspecified)
1.59

---

System: BT-549 breast
Assay: NCI tumour cell line growth inhibition, 48 h
Readout type: TGI (µM)
Form entry: value (µM) — number only.

Molecule | TGI [µM]
Cc1ncc(C(=O)Nc2ccc(CN3CCN(C)CC3)c(C(F)(F)F)c2)cc1C#Cc1cnc(N)c2ncccc12 | 18.9
CCO/C=N/C1=C(C#N)C(c2ccc(Cl)cc2)c2c(-c3ccccc3)nn(-c3ccccc3)c2O1 (stereo unspecified) | 31.5
O=C1c2cscc2C(=O)C1(O)O | 90.9
CCOC(=O)c1ccc(Nc2sc(C(=O)c3cccc([N+](=O)[O-])c3)c(N)c2C#N)cc1 | 39.4
CC(C)(C)OC(=O)NC(Cc1ccc(OCc2ccccc2)cn1)C(=O)NCc1ccccc1 (stereo unspecified) | 48.6

Data request, read-out TGI, for c1ccc(-c2nnc(Nc3ccc4c(c3)OCCO4)o2)c(NCc2ccncc2)c1
7.01

Could you do the same for Cc1c2cccc-2ccc2c1[nH]c1ccc(Br)cc12 , please?
20.7

Could you do the same for CO[C@@H]1C=C[C@@]23c4cc5c(cc4C(O)N(CC2O)C3C1)OCO5 (stereo partly specified) , please?
20.5

Could you do the same for CC[C@H](C)[C@H](NC(=O)Nc1ccccc1)C(=O)N(C)[C@H](C[C@@H](OC(C)=O)c1nc(C(=O)N[C@@H](Cc2ccccc2)C[C@H](C)C(=O)OC)cs1)C(C)C , please?
41.2

Could you do the same for C#C[C@@]1(O)[C@@H](CO)O[C@@H](n2ccc3c(N)ncnc32)[C@@H]1O , please?
3.64
